Reported values of pEC50 for individual entries
tested on: Yellow fever virus; assay: Antiviral activity against Yellow fever virus 17D infected in African green monkey Vero cells assessed as inhibition of virus induced cytopathic effect […] by NR dye uptake assay; format: functional, cell-based
pEC50: −log10 of the molar value.
RECORDED ENDPOINT: pEC50

                           smiles_structure  quantitative_readout
0                        NC(=O)c1nc(F)cnc1O                  3.57
1  NC(=O)c1nccn([C@@H]2O[C@H](CO)[C@@H](O)[C@H]2O)c1=O                  2.74
